These data points were gathered from PubChem BioAssay AID463173.

- Tested on: DeltatarO mutant
- method: S. aureus survival, RN4220 and DeltatarO strains – OD600, teichoic acid synthesis inhibitors, primary screen (AID 463173)
- condition-set: S. aureus RN4220 wild type/DeltatarO growth, OD600, 18 h, stronger effect = lower value, screened at 18.75 µg/mL (by protocol)
Hit rate of the full screen: of about 52,000 compounds, about 4,300 (8.3%) were called active. The list comes from a sample in which actives are over-represented; it also holds close analogues and randomly drawn compounds.
observed-property: survival (%)
A number alone suffices; assume %.

Prompt: Requested read-out: survival. Entry: COc1ccc2oc(-c3ccc(C)c(NC(=O)c4ccc5c(c4)OCCO5)c3)nc2c1
Completion: 70

Prompt: Look up survival: COc1ccc(C(=O)/C=C/c2cn(CC(O)CN3CCc4ccccc43)c3ccccc23)cc1OC (centres undefined)
Completion: 68

Prompt: For the compound shown here, CCC(C)Nc1ncnc2c1cnn2-c1ccc(F)cc1 (centres undefined) , give the reported survival.
Completion: 72

Prompt: If you can, please state the reported survival value of O=C(Nc1cccc(Cl)c1)C1CCN(c2nc3ccccc3nc2C(F)(F)F)CC1 .
Completion: 70
